Examples of compounds with documented IC50 follow.
# Tested on: human colorectal adenocarcinoma (HT-29)
# Assay Explanation: SRB cytotoxicity assay, HT-29
# Type: cell-based
# Protocol Conditions: HT-29, 72 h, read-out: Cytotoxicity (IC50) HT-29
Recorded Endpoint: IC50 (µM)

COc1c(C)c(OS(=O)(=O)c2ccc3ccccc3c2)c(C)c(O)c1C(=O)/C=C/c1ccccc1	24.7
CCCCCCCC(=O)Oc1c(C)c(O)c(C(=O)/C=C/c2ccccc2)c(OC)c1C	26.6
COc1c(C)c(OC(C)=O)c(C)c(OC(C)=O)c1C(=O)/C=C/c1ccccc1	36.5
COc1c(C)c(OC(C)=O)c(C)c(O)c1C(=O)/C=C/c1ccccc1	38.6
COc1c(C)c(OC)c(C(=O)/C=C/c2ccccc2)c(OC)c1C	21.9
COc1c(C)c(OC(=O)c2ccc(C)cc2)c(C)c(O)c1C(=O)/C=C/c1ccccc1	26.8
COc1c(C)c(OC(=O)c2ccccc2)c(C)c(O)c1C(=O)/C=C/c1ccccc1	32.5
COc1c(C)c(O)c(C)c(O)c1C(=O)/C=C/c1ccccc1	38.6
CCCCCC(=O)Oc1c(C)c(O)c(C(=O)/C=C/c2ccccc2)c(OC)c1C	26.6
Cc1c2ccncc2c(C)c2c1[nH]c1ccccc12 [Ellipticine, reference compound]	2.15
CCCC(=O)Oc1c(C)c(O)c(C(=O)/C=C/c2ccccc2)c(OC)c1C	35.8
C=CCOc1c(C)c(O)c(C(=O)/C=C/c2ccccc2)c(OC)c1C	34.6
COc1c(C)c(OCc2ccccc2)c(C)c(O)c1C(=O)/C=C/c1ccccc1	27.5

----------
# Assay Explanation: SRB cytotoxicity assay, normal cell line CL
# Assay type: cell-based
# Protocol Conditions: human, CL cells (normal liver hepatic cell line)
Checkbox rule: IC50 at 72 h lower than 20 µM = t; IC50 at 72 h not lower than 20 µM = f.

COc1c(C)c(OS(=O)(=O)c2ccc3ccccc3c2)c(C)c(O)c1C(=O)/C=C/c1ccccc1	f
COc1c(C)c(O)c(C)c(O)c1C(=O)/C=C/c1ccccc1	t
COc1c(C)c(OCc2ccccc2)c(C)c(O)c1C(=O)/C=C/c1ccccc1	f
C=CCOc1c(C)c(O)c(C(=O)/C=C/c2ccccc2)c(OC)c1C	f
Cc1c2ccncc2c(C)c2c1[nH]c1ccccc12 [Ellipticine, reference compound]	t
COc1c(C)c(OC(=O)c2ccccc2)c(C)c(O)c1C(=O)/C=C/c1ccccc1	f
COc1c(C)c(OC(C)=O)c(C)c(OC(C)=O)c1C(=O)/C=C/c1ccccc1	f
CCCC(=O)Oc1c(C)c(O)c(C(=O)/C=C/c2ccccc2)c(OC)c1C	f
COc1c(C)c(OC)c(C(=O)/C=C/c2ccccc2)c(OC)c1C	t

----------
Examples of compounds with documented IC50 at 72 h follow.
# Assay Explanation: SRB cytotoxicity assay, normal cell line CL
# Assay type: cell-based
# Protocol Conditions: human, CL cells (normal liver hepatic cell line)
Recorded Endpoint: IC50 at 72 h (µM)

CCCCCCCCCC(=O)Oc1c(C)c(O)c(C(=O)/C=C/c2ccccc2)c(OC)c1C	41.9
CCCCCCCC(=O)Oc1c(C)c(O)c(C(=O)/C=C/c2ccccc2)c(OC)c1C	25.2
COc1c(C)c(OC(=O)c2ccc(C)cc2)c(C)c(O)c1C(=O)/C=C/c1ccccc1	25.4
COc1c(C)c(OC(C)=O)c(C)c(O)c1C(=O)/C=C/c1ccccc1	31
CCCCCC(=O)Oc1c(C)c(O)c(C(=O)/C=C/c2ccccc2)c(OC)c1C	23.5
